Cited source: paper PMC10001067

Target: xanthine oxidase (XO) (Bos taurus)
Construct: xanthine oxidase (X1875-5UN, derived from bovine milk); purchased Solarbio Co., Ltd. (Beijing, China) X1875-5UN; host or cells: bovine milk
Sequence (P80457 whole entry): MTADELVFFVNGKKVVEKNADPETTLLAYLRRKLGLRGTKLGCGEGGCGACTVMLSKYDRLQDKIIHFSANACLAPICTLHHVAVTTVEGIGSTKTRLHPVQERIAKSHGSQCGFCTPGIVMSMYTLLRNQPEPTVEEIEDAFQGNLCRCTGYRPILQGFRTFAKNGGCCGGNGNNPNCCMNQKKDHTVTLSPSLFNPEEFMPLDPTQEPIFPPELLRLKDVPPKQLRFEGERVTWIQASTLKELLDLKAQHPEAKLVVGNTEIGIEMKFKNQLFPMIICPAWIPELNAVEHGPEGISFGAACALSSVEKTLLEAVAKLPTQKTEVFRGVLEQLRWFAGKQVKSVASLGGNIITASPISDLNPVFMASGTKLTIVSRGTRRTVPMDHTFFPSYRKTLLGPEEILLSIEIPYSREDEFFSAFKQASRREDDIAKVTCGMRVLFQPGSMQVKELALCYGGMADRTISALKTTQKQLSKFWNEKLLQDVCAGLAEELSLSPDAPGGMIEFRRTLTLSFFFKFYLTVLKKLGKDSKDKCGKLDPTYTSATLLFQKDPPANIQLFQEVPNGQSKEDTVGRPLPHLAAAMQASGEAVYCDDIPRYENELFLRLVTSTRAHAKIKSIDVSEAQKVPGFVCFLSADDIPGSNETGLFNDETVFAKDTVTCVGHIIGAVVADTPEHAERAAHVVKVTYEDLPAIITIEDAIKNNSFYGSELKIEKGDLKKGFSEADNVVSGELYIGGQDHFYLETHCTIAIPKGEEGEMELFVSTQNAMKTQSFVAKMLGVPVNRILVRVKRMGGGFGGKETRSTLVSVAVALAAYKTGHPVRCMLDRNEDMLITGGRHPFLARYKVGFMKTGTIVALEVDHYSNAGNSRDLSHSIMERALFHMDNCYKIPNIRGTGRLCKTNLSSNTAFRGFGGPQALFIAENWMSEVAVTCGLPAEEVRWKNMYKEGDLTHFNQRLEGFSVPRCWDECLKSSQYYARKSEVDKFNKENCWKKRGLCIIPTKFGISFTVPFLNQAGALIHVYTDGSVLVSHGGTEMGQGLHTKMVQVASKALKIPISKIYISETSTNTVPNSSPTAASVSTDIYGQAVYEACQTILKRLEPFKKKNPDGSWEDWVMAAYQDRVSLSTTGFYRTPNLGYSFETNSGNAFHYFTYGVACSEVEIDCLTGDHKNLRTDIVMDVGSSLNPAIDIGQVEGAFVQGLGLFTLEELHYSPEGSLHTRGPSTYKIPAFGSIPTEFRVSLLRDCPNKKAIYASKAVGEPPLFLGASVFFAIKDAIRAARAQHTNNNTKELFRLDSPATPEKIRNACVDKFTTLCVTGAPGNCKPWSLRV
Experiment: XOI activity IC50 in vitro (uric acid formation, absorbance 290 nm)
Type: biochemical, bovine milk
Conditions: synthesized peptides; 0.2 M potassium phosphate buffer pH 7.4; XO 0.07 U/mL; xanthine 0.48 mM; 37 °C; absorbance 290 nm; mean ± SD, n = 3; SD
No end group written: not given here.
observed property: pIC50
pIC50 here: minus log base 10 of the concentration, concentration in moles per litre.

Find the measured pIC50 of APPERKYSVW [APPERKYSVW, Ala-Pro-Pro-Glu-Arg-Lys-Tyr-Ser-Val-Trp] and report it. 2.23

Find the measured pIC50 of WDDMEKIW [WDDMEKIW, Trp-Asp-Asp-Met-Glu-Lys-Ile-Trp] and report it. 2.50
